Tested on: oreillette gauche du cobaye isolée et stimulée électriquement
Measurement Protocol: In vitro inotropic (cardiotonic) activity: contraction force of isolated, electrically stimulated guinea pig left atrium
Assay type: cell-based
Assay Context: significant response = basal contraction force increased by more than 40 %; isolated left atrium of guinea pig, electrically stimulated; read-out: Cardiotonique (concentration minimale efficace en ug/ml produisant une réponse significative)
In this section, each of the compounds is paired with its reported log10 minimal effective concentration.
Reported Endpoint: log10 minimal effective concentration (log10 of the value in µg/mL)

- Compound: "CCCn1c(=O)n(CCC(C)O)c(=O)c2[nH]cnc21 (stereo not shown) [compound 16]"
  log10 minimal effective concentration: -1.00
- Compound: "CC(O)CCn1c(=O)c2[nH]cnc2n(C)c1=O (stereo not shown) [compound 13]"
  log10 minimal effective concentration: 1.70
- Compound: "CCCn1c(=O)n(CCCCO)c(=O)c2[nH]cnc21 [compound 19]"
  log10 minimal effective concentration: -0.40
- Compound: "CC(C)Cn1c(=O)n(CCCO)c(=O)c2[nH]cnc21 [compound 11]"
  log10 minimal effective concentration: -0.15
- Compound: "CC(C)Cn1c(=O)n(CCC(C)O)c(=O)c2[nH]cnc21 (stereo not shown) [compound 17]"
  log10 minimal effective concentration: 0.11
- Compound: "CCn1c(=O)n(CCC(C)O)c(=O)c2[nH]cnc21 (stereo not shown) [compound 14]"
  log10 minimal effective concentration: -0.10
- Compound: "CC(O)CCCn1c(=O)c2[nH]cnc2n(C)c1=O (stereo not shown) [compound 23]"
  log10 minimal effective concentration: 1.52
- Compound: "Nc1cc(-c2ccncc2)c[nH]c1=O [Amrinone, reference compound]"
  log10 minimal effective concentration: 2.00
- Compound: "CCCn1c(=O)n(CCCCCO)c(=O)c2[nH]cnc21 [compound 26]"
  log10 minimal effective concentration: -0.70
- Compound: "CCn1c(=O)n(CCC(C)O)c(=O)c2[nH]c(C)nc21 (stereo not shown) [compound 15]"
  log10 minimal effective concentration: -0.22
